meta.source: PubChem BioAssay (NCI)

Test system: SK-OV-3 ovarian
Test Protocol: NCI tumour cell line growth inhibition, 48 h
Measure: TGI

[[record]]
compound = "CN(c1ccccc1)C1C(=O)N(c2ccccc2)C1/C=C/c1ccccc1 (stereo not given)"
target_of_assay = "SK-OV-3 ovarian"
measure = "TGI"
value = "> 100 µM"

[[record]]
compound = "C[C@H]1CC[C@@H]2[C@@H](C)[C@H]3[C@H](C[C@H]4[C@@H]5CC=C6C[C@@H](O)CC[C@]6(C)[C@H]5C[C@H](O)[C@]34C)N2C1"
target_of_assay = "SK-OV-3 ovarian"
measure = "TGI"
value = "> 100 µM"

[[record]]
compound = "N#Cc1c(NC(=O)CN2CCOCC2)sc2c1CCCC2"
target_of_assay = "SK-OV-3 ovarian"
measure = "TGI"
value = "> 25 µM"

[[record]]
compound = "O=C1c2ccccc2C(=O)N1CCCCCCNOCCCN1C(=O)c2ccccc2C1=O"
target_of_assay = "SK-OV-3 ovarian"
measure = "TGI"
value = "> 100 µM"

[[record]]
compound = "O=c1c2ccccc2nc(-c2ccccc2)n1NC(=S)Nc1ccc(Cl)cc1[N+](=O)[O-]"
target_of_assay = "SK-OV-3 ovarian"
measure = "TGI"
value = "> 100 µM"

[[record]]
compound = "CCCCN(CCCC)CCCN=c1nc2c(c(N)n1-c1ccccc1)c(=S)n(-c1ccccc1)c(=S)n2-c1ccccc1"
target_of_assay = "SK-OV-3 ovarian"
measure = "TGI"
value = "3.04 µM"

[[record]]
compound = "N=C(N)n1[nH]c2c(c1=O)CCCC2"
target_of_assay = "SK-OV-3 ovarian"
measure = "TGI"
value = "> 100 µM"

[[record]]
compound = "Cc1ccccc1N=Nc1c(O)[nH]c2ccccc12"
target_of_assay = "SK-OV-3 ovarian"
measure = "TGI"
value = "> 100 µM"

[[record]]
compound = "Cc1cc(C)cc(Sc2c([N+](=O)[O-])ncn2C)c1"
target_of_assay = "SK-OV-3 ovarian"
measure = "TGI"
value = "75.5 µM"

[[record]]
compound = "Cc1ccc(/C(=C/C=C(C#N)C#N)Sc2cc(Cl)ccc2Cl)cc1"
target_of_assay = "SK-OV-3 ovarian"
measure = "TGI"
value = "27.8 µM"


----------
TGI listing for selected compounds.
Tested on: HCC-2998 colon
Test Protocol: NCI tumour cell line growth inhibition, 48 h
Measure: TGI (µM)

[[record]]
compound = "O=C1CN2C(Cl)(Cl)C2(c2ccccc2)c2cc(Cl)ccc2N1CC(F)(F)F (centres undefined)"
relation_symbol = "="
value = 35.9

[[record]]
compound = "N#CCC(=O)N/N=C1\\C(=O)N(c2ccc(Cl)cc2)C(=O)C(=O)C1c1nc2ccccc2o1 (centres undefined)"
relation_symbol = ">"
value = 100

[[record]]
compound = "N#CN1CCC[C@H]1C(=O)N1CCc2c(-c3[nH]nc4ncccc34)cccc21"
relation_symbol = "="
value = 11.6

[[record]]
compound = "CC[C@@H](C(=O)[C@@H](C)[C@@H](O)[C@H](C)CCc1ccc(C)c(O)c1C(=O)O)[C@H]1O[C@](CC)([C@H]2CC[C@](O)(CC)[C@H](C)O2)C[C@@H]1C"
relation_symbol = "="
value = 11.4

[[record]]
compound = "COc1ccc2c(=O)c3cc([N+](=O)[O-])ccc3n(C)c2c1"
relation_symbol = ">"
value = 100

[[record]]
compound = "Cc1ccc2c(c1)[nH]c(=S)n2C=C1C(=O)CC(C)(C)CC1=O"
relation_symbol = ">"
value = 100

[[record]]
compound = "C[C@]12C=CC(=O)C=C1CC[C@@H]1[C@@H]2C(=O)C[C@@]2(C)[C@H]1CC[C@]2(O)C(=O)CO"
relation_symbol = ">"
value = 100

[[record]]
compound = "CN(C)CCNC(=O)c1cccc2nc3cccc(F)c3nc12"
relation_symbol = "="
value = 4.31

[[record]]
compound = "NC(=S)N1N=C2c3ccccc3CC[C@H]2[C@@H]1c1cccs1"
relation_symbol = ">"
value = 100

[[record]]
compound = "Cc1c(C(=O)O)c2cc3ccccc3cc2c(=O)n1C"
relation_symbol = ">"
value = 10

[[record]]
compound = "CC[C@@H](C(=O)[C@@H](C)[C@@H](O)[C@H](C)[C@@H]1O[C@@H]([C@@H](CC)C(=O)O)CC[C@@H]1C)[C@H]1OC2(C=C[C@@H](O)[C@]3(CC[C@@](C)([C@H]4CC[C@](O)(CC)[C@H](C)O4)O3)O2)[C@H](C)C[C@@H]1C (some centres undefined)"
relation_symbol = "="
value = 10.5

[[record]]
compound = "CCOc1ccc2c(ccc(/C=C\\c3cc(C)c4cccnc4c3O)[n+]2C)c1"
relation_symbol = ">"
value = 100

[[record]]
compound = "C#COc1cccc(Nc2ncnc3ncc(NC(=O)CCl)cc23)c1"
relation_symbol = ">"
value = 62.5

[[record]]
compound = "Cc1c[nH]c(C(=O)O)c1-c1ccc2c(-c3ccccc3)nc3ccccc3n12"
relation_symbol = "="
value = 56.9

[[record]]
compound = "COc1cc2cc[n+]3c4cc(OC)c(OC)cc4c(C)cc3c2cc1OC"
relation_symbol = ">"
value = 100

[[record]]
compound = "O=C(Nc1ccccc1C(=O)O)/C(=C/c1ccccc1)NC(=O)c1ccccc1"
relation_symbol = ">"
value = 100

[[record]]
compound = "CCC[CH2][Sn]([CH2]CCC)([O]C(=O)c1nccnc1N)[O]C(=O)c1nccnc1N"
relation_symbol = "="
value = 2.45

[[record]]
compound = "[N-]=[N+]=Nc1c([N+](=O)[O-])c(Cl)nc2ccccc12"
relation_symbol = "="
value = 4.17

[[record]]
compound = "COC(=O)[C@H](CC(C)C)NC(=O)NC(=O)NC(=O)CI"
relation_symbol = "="
value = 24.2

